Reference for the values: patent US7101878B1

Assay: Pharmacokinetic studies / bioavailability in rats
Type: in vivo, rat
Details: rat male; p.o. 20 mg/kg; vehicle per footnote (DMSO/cremophor/saline)
Provide the reported Fp.o. of each item.

See these solved cases before continuing.
CHEM SMILES: COc1cc(OC)c(NC(=O)c2ccc(Cc3cc4c(cc3C)C(C)(C)CCC4(C)C)o2)c(OC)c1
RESULT: 8% (20 mg/kg)^5

CHEM SMILES: Cc1cc2c(cc1Cc1ccc(C(=O)NCc3cccc(CNc4nccc(NC[C@@H]5CCCO5)n4)c3)o1)C(C)(C)CCC2(C)C
RESULT: 3% (20 mg/kg)^1

CHEM SMILES: COc1cc(OC)c(NC(=O)c2ccc(Cc3cc4c(cc3C)C(C)(C)CCC4(C)C)o2)c(OC)c1C#N
RESULT: 0 (20 mg/kg)^9%

Hi team, please reply with Fp.o. for each item in this list.
1. COc1cc(OC)c(NC(=O)c2ccc(Cc3c(C)cc(C)cc3C)o2)c(OC)c1
2. Cc1cc2c(cc1Cc1ccc(C(=O)NCc3nc4ccccc4[nH]3)o1)C(C)(C)CCC2(C)C

### Response
1% (20 mg/kg)^6
4% (20 mg/kg)^1

Hi team, please reply with Fp.o. for each item in this list.
1. Cc1cc2c(cc1Cc1ccc(C(=O)NCc3cccc(CNc4ccnc(NC[C@@H]5CCCO5)n4)c3)o1)C(C)(C)CCC2(C)C
2. COc1cc(OC)c(NC(=O)c2ccc(Cc3cc4c(cc3OC)C(C)(C)CCC4(C)C)o2)c(OC)c1
3. COc1cc(OC)c(C(C)=O)cc1NC(=O)c1ccc(Cc2cc3c(cc2C)C(C)(C)CCC3(C)C)o1

### Response
1: 6% (20 mg/kg)^4; 2: 27% (20 mg/kg)^1; 3: 0 (20 mg/kg)^7%

###

Target: human GnRH receptor (Homo sapiens, UniProt P30968)
Construct: expressed in transfected cells; host or cells: HEK 293 (hGnRH-R/293, from Dr. Stuart Sealfon)
Sequence (P30968 whole entry): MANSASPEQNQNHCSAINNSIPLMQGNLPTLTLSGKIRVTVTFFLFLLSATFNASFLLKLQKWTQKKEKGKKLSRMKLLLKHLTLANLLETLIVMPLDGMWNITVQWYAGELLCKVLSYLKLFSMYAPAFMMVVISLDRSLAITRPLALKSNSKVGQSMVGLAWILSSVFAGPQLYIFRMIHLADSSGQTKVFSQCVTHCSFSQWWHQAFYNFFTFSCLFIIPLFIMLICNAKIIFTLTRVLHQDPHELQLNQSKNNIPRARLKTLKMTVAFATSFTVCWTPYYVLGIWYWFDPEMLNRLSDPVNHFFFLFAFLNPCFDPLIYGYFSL
Test: Radioligand binding, 125I-GnRH-A displacement, membranes of HEK 293 cells with human GnRH receptor
Conditions: read-out: hGnRH IC50
Description: All compounds were diluted in 1% DMSO (final assay concentration) in binding assay buffer. […] Reactions were terminated by rapid filtration onto 96-well Packard GF/C filters soaked in 0.1% polyethyleneimine. Filters were washed three times with PBS buffer, dried and counted on a Packard Topcount by liquid scintillation counting. […] The reaction mixture was vortexed and incubated for 1 min at room temperature. […] Fractions were assessed for biological activity by radioligand binding. […]
ASSAY ENDPOINT: log10(IC50) (log10 of the value in nM)
The base-10 logarithm of IC50, taken with IC50 in nM, is what appears here.

See these solved cases before continuing.
COMPOUND: Cc1cc2c(cc1Cc1ccc(C(=O)NCc3cccc(CNc4cc(Cl)nc(N)n4)c3)o1)C(C)(C)CCC2(C)C [Compound 145]
TARGET OF ASSAY: human GnRH receptor (Homo sapiens, UniProt P30968)
log10(IC50): 2.30
--
COMPOUND: COc1cc2c(cc1Cc1ccc(C(=O)Nc3c(OC)cc(OC)c(C#N)c3OC)o1)C(C)(C)CCC2(C)C [Compound 217]
TARGET OF ASSAY: human GnRH receptor (Homo sapiens, UniProt P30968)
log10(IC50): 1.46
--
COMPOUND: COc1cc(OC)c(NC(=O)c2ccc(Cc3c(C)c(C)c4c(c3C)C=CC(C)(C)O4)o2)c(OC)c1 [Compound 184]
TARGET OF ASSAY: human GnRH receptor (Homo sapiens, UniProt P30968)
log10(IC50): 2.75
--
COMPOUND: Cc1cc2c(cc1Cc1ccc(C(=O)NCC3CCCC(CNC(=N)N)C3)o1)C(C)(C)CCC2(C)C (stereo not drawn) [Compound 22]
TARGET OF ASSAY: human GnRH receptor (Homo sapiens, UniProt P30968)
log10(IC50): 2.73

Hi team, please reply with log10(IC50) for each item in this list.
1. CCc1cccc(CC)c1NC(=O)c1ccc(Cc2cc3c(cc2C)C(C)(C)CCC3(C)C)o1 [Compound 86]
2. Cc1cc2c(cc1Cc1ccc(C(=O)Nc3c(O)cccc3O)o1)C(C)(C)CCC2(C)C [Compound 189]
3. COc1cc(OC)c(Cc2ccc(C(=O)Nc3c(OC)cc(OC)cc3OC)o2)c(OC)c1 [Compound 219]

### Response
3.90
2.97
2.94

Hi team, please reply with log10(IC50) for each item in this list.
1. COc1cc(OC)c(NC(=O)c2ccc(Cc3cc(C(C)(C)C)ccc3C)o2)c(OC)c1 [Compound 200]
2. Cc1cc2c(cc1Cc1ccc(C(=O)NCCc3cccc(F)c3)o1)C(C)(C)CCC2(C)C [Compound 54]
3. COc1cc(OC)c(C(C)=O)cc1NC(=O)c1ccc(Cc2cc3c(cc2C)C(C)(C)CCC3(C)C)o1 [Compound 170]
4. Cc1cc2c(cc1Cc1ccc(C(=O)NC[C@@H]3CCCO3)o1)C(C)(C)CCC2(C)C [Compound 58]
5. COc1cc(OC)c(NC(=O)c2ccc(Cc3cc4c(cc3C)OCCC4(C)C)o2)c(OC)c1 [Compound 221]
6. Cc1cc2c(cc1Cc1ccc(C(=O)Nc3ccc(CC(=O)O)cc3)o1)C(C)(C)CCC2(C)C [Compound 33]

### Response
1: 1.62; 2: 2.83; 3: 1.70; 4: 2.31; 5: 1.18; 6: 3.72

Hi team, please reply with log10(IC50) for each item in this list.
1. Cc1cc2c(cc1Cc1ccc(C(=O)NC[C@H]3CCCO3)o1)C(C)(C)CCC2(C)C [Compound 57]
2. COCCCNc1ccnc(NCc2cccc(CNC(=O)c3ccc(Cc4cc5c(cc4C)C(C)(C)CCC5(C)C)o3)c2)n1 [Compound 153]
3. COc1cc(OC)c(NC(=O)c2ccc(C(O)c3cc4c(cc3C)C(C)(C)CCC4(C)C)o2)c(OC)c1 (stereo not drawn) [AXC- 07047]
4. Cc1ccc(C(C)(C)C)cc1Cc1ccc(C(=O)NCc2cccc(CNc3ccnc(NC[C@H]4CCCO4)n3)c2)o1 [Compound 212]
5. Cc1cc2c(cc1Cc1ccc(C(=O)NCc3ccc(-c4csnn4)cc3)o1)C(C)(C)CCC2(C)C [Compound 79]
6. Cc1cc2c(cc1Cc1ccc(C(=O)NCc3ccc(C(C)(C)C)cc3)o1)C(C)(C)CCC2(C)C [Compound 49]
7. CC(=O)c1cccc(NC(=O)c2ccc(Cc3cc4c(cc3C)C(C)(C)CCC4(C)C)o2)c1 [Compound 19]
8. Cc1ccccc1CNC(=O)c1ccc(Cc2cc3c(cc2C)C(C)(C)CCC3(C)C)o1 [Compound 50]

### Response
1. 2.92
2. 2.08
3. 3.15
4. 1.90
5. 2.40
6. 3.57
7. 1.70
8. 2.36

Hi team, please reply with log10(IC50) for each item in this list.
1. Cc1cc2c(cc1Cc1ccc(C(=O)NCc3cccc(CNc4ncc(C)c(NCC5CCCO5)n4)c3)o1)C(C)(C)CCC2(C)C (stereo not drawn) [Compound 151]
2. Cc1cc2c(cc1Cc1ccc(C(=O)NCc3cccc(CNc4nccc(N5CCOCC5)n4)c3)o1)C(C)(C)CCC2(C)C [Compound 150]
3. COc1cccc(OC)c1NC(=O)c1ccc(Cc2c(C)cc(C)c(Br)c2C)o1 [Compound 140]

### Response
1. 1.81
2. 1.90
3. 2.04

###

Biological target: human GnRH receptor (Homo sapiens, UniProt P30968)
Construct: expressed in transfected cells; host or cells: HEK 293 (hGnRH-R/293, from Dr. Stuart Sealfon)
Experiment: Radioligand binding, 125I-GnRH-A displacement, membranes of HEK 293 cells with human GnRH receptor
Conditions: 1 h, repeat of % Inhib. at 1 uM; read-out: Repeats @ 1 uM hGnRH
Provide the reported inhibition at 1 µM of each item.
Param answer (str): number followed by unit.

See these solved cases before continuing.
COMPOUND: COc1ccc(CNC(=O)c2ccc(Cc3cc4c(cc3C)C(C)(C)CCC4(C)C)o2)c(OC)c1 [drawing 1224]
inhibition at 1 µM: 96%

COMPOUND: COc1cccc(CNC(=O)c2ccc(Cc3cc4c(cc3C)C(C)(C)CCC4(C)C)o2)c1OC [drawing 1093]
inhibition at 1 µM: 83%

COMPOUND: Cc1cc2c(cc1Cc1ccc(C(=O)NCc3c(Cl)cccc3Oc3ccccc3)o1)C(C)(C)CCC2(C)C
inhibition at 1 µM: -15%

### Prompt So what does the record say about inhibition at 1 µM for Cc1cc2c(cc1Cc1ccc(C(=O)NC(c3ccccc3)c3ccc(Cl)cc3)o1)C(C)(C)CCC2(C)C (stereo not shown) ?
### Response 3%

###

Test: Pharmacokinetic studies / bioavailability in rats
Format: in vivo, rat
Settings: female, rat, plasma, po, 20 mg/kg, rat female; p.o. 20 mg/kg; 10 mg/ml solution in 10% DMSO 10% cremophor 80% saline
ASSAY ENDPOINT: Cmax
Param answer (str): number followed by unit.

COMPOUND: Cc1cc2c(cc1Cc1ccc(C(=O)NCc3cccc(CNc4ccnc(NC[C@@H]5CCCO5)n4)c3)o1)C(C)(C)CCC2(C)C [Compound 136]
ASSAY ENDPOINT: Cmax
RESULT: 240 nM

Okay, next one:
### Prompt So what does the record say about Cmax for COc1cc(OC)c(NC(=O)c2ccc(Cc3cc4c(cc3C)C(C)(C)CCC4(C)C)o2)c(OC)c1 [Compound 134] ?
### Response 2310 nM
